# System: Human immunodeficiency virus 2
# assay_method_text: Antiviral activity against HIV2 infected in human MT4 cells by MTT assay
# Type: functional, organism-based
# condition_notes: Human immunodeficiency virus 2, MT4
pEC50: −log10 of the molar value.

{"columns": ["structure_string", "pEC50"],
 "data": [
  ["Cn1cc(C(=O)O)c(=O)c2ccc(N3CCN(c4nc5ccccc5s4)CC3)nc21", 7.40]
]}

---

# System: Human immunodeficiency virus 1
# assay_method_text: Antiviral activity against wild type HIV1 infected in human C8166 cells
# Format: functional, organism-based
# condition_notes: Human immunodeficiency virus 1, C8166
pEC50: −log10 of the molar value.
observable: pEC50

{"columns": ["structure_string", "observable", "endpoint_result"],
 "data": [
  ["CC(C)[C@@H](CO)n1cc(C(=O)O)c(=O)c2c(F)c(Cc3cccc(Cl)c3F)ccc21", "pEC50", 7.49]
]}
